System: OVCAR-3
Assay: NCI tumour cell line growth inhibition, 48 h
The source made the active and inactive calls. Cut-off read from the data, not from the text of the source: active = GI50 up to about 1.1 µM and inactive = higher.
Here the recorded GI50 is given for each entry.

compound	GI50
COc1ccc(/C(CC2OC(=O)c3ccccc32)=N\NC(=O)C[N+](C)(C)C)cc1 (configuration not stated)	30.3 µM (inactive)
NC(CCCCNC(=O)C(Cc1ccccc1)NC(=O)OCc1ccccc1)C(=O)NC(CCCCNC(=O)C(Cc1ccccc1)NC(=O)OCc1ccccc1)C(=O)NC(CCCCNC(=O)C(Cc1ccccc1)NC(=O)OCc1ccccc1)C(=O)NC(CCCCNC(=O)C(Cc1ccccc1)NC(=O)OCc1ccccc1)C(=O)NC(CCCCNC(=O)C(Cc1ccccc1)NC(=O)OCc1ccccc1)C(=O)NC(CCCCNC(=O)C(Cc1ccccc1)NC(=O)OCc1ccccc1)C(=O)O (configuration not stated)	> 100 µM (inactive)
CCCC1CCC(=C2C(=O)CCC2=O)O1 (configuration not stated)	> 100 µM (inactive)
Oc1ccc2ccccc2c1Cc1c(O)ccc2ccccc12	11.2 µM (inactive)
CCOC(=O)C1(C/C=C\CBr)CCCCCCCCCCC1=O (configuration not stated)	2.09 µM (inactive)
CCOC(=O)O/C(=C\c1ccc(OC)cc1)c1c(OC(=O)OCC)n(C(=O)OCC)c2ccccc12	59.4 µM (inactive)
CCOC(=O)/C=C(\C)Sc1cc(O)c2ccccc2c1O	28.6 µM (inactive)

* * *

Test system: NCI-H522
Experiment: NCI tumour cell line growth inhibition, 48 h
The source made the active and inactive calls. No stated cut-off is given here; in the data, active = GI50 up to about 1.1 µM and inactive = higher.
Here the recorded GI50 is given for each entry.
measured-parameter: GI50

> print(dat)
                                   compound      measured.result
1        O=P(O)(Cc1ccccc1)c1ccccc1-c1ccccc1  > 100 µM (inactive)
2  Cc1ccc([N+](=O)[O-])cc1S(=O)(=O)Nc1ccc(C2=NOC(c3ccccc3)C2)cc1 (stereo not drawn)   3.27 µM (inactive)
3  Cc1cc(N(CCC#N)CCC#N)ccc1/C=C1\SC(=S)NC1=O   19.4 µM (inactive)

* * *

Here the recorded GI50 is given for each entry.
Tested on: NCI-H522
Test: NCI tumour cell line growth inhibition, 48 h
Activity calls are given as the source filed them. No stated cut-off is given here; in the data, active = GI50 up to about 1.1 µM and inactive = higher.

compound	GI50
O=C1N=C(c2ccccc2)OC1C(=O)c1ccccc1 (stereo unspecified)	> 100 µM (inactive)
N#Cc1cccc(C2ON=C(c3ccc([N+](=O)[O-])cc3)N2C23CC4CC(CC(C4)C2)C3)c1 (stereo unspecified)	24.3 µM (inactive)
COc1ccc2c(c1)CC[C@@H]1[C@@H]2CC[C@]2(C)/C(=N/OCCN3CCCCC3)CC[C@@H]12	5.27 µM (inactive)
COc1ccc2c(c1)C1OCCNC1CC2 (stereo unspecified)	> 100 µM (inactive)
Cn1c(=O)c2c(nc3n2C(CCl)CO3)n(C)c1=O (stereo unspecified)	> 100 µM (inactive)
CCOC(=O)C1=C(O)C2C3CC4C2C(O)=C(C(=O)OCC)C2C1C3C42 (stereo unspecified)	> 100 µM (inactive)
CC(=O)OCc1nc(C#N)c(N)o1	> 100 µM (inactive)
CSc1nc2c(ncn2C2OC(CO)C(O)C(O)C2O)c(=O)n1C (stereo unspecified)	> 100 µM (inactive)
O=C1C=CC[C@H](/C=C/C[C@@H](O)C[C@H](O)/C=C/c2ccccc2)O1	4.25 µM (inactive)
CC(NC(=O)C(N)CC(=O)O)NC(=O)C1CCC1 (stereo unspecified)	> 100 µM (inactive)
O=c1[nH]c(=O)n(C2CC(O)C(CO)O2)cc1C#Cc1ccc(C(F)(F)F)cc1 (stereo unspecified)	> 100 µM (inactive)
Oc1ccc2ccccc2c1Cc1c(O)ccc2ccccc12	10.7 µM (inactive)
N#CCCN(c1ccc(/C=N/c2ccccc2)cc1)S(=O)(=O)c1ccccc1	> 100 µM (inactive)
CN1CCOC(c2ccccc2)O1 (stereo unspecified)	> 100 µM (inactive)
COc1ccc(C2COc3c(ccc(OC)c3OC)C2=O)cc1OC (stereo unspecified)	> 100 µM (inactive)
CNC(=O)/C=C/C1=CN2C(=O)c3ccc(C)c(O)c3NC(OC)C2C1 (stereo unspecified)	< 0.0128 µM (active)
Cc1ccc(S(=O)(=O)NC(C(=O)O)C(C)C)cc1 (stereo unspecified)	> 100 µM (inactive)
C[N+](C)(N)Cc1csc(-c2ccc(Cl)cc2)n1	62.4 µM (inactive)
Cn1c2ccccc2n2c(=O)c3cc([N+](=O)[O-])ccc3c(C#N)c12	> 100 µM (inactive)
CN(CC(=O)O)Cc1oc(CO)cc(=O)c1O	> 100 µM (inactive)
ClCC[N+]12CC[N+](CCCl)(CC1)C2	> 100 µM (inactive)
COC[C@@H]1[C@H]2OC(C)(C)O[C@H]2C(=O)N1C(=O)c1ccc(OC)cc1	> 71.8 µM (inactive)
C[n+]1cn(-c2nc3ccccc3nc2[N-]S(=O)(=O)c2ccccc2)c2ccccc21	0.222 µM (active)
COC(=O)c1c(-c2ccccc2)cc2c3cc(-c4ccccc4)c(C(=O)OC)n3c3ccccc3n12	> 91 µM (inactive)
NCCN/C(=N\c1ccccc1)Nc1ccccc1	68.4 µM (inactive)
CC(=O)C(=C(I)I)c1ccccc1	12.7 µM (inactive)
COc1ccc(/C=C2\CN(C)Cc3c2nc(N)nc3-c2ccc(OC)cc2)cc1	41.3 µM (inactive)
COc1ccc(S(=O)(=O)N/N=C/CN2C(=O)c3ccccc3C2=O)cc1OC	> 100 µM (inactive)
OCCNCNc1nc(NCNCCO)nc(N(CNCCO)CNCCO)n1	21.3 µM (inactive)
Oc1c(O)c(Cc2ccccc2)c(Cc2ccccc2)c(Cc2ccccc2)c1Cc1ccccc1	> 10 µM (inactive)
CO[C@H]1C=CO[C@@]2(C)Oc3c(C)c(O)c4c(O)c(c(CN5CCN(C)CC5)c(O)c4c3C2=O)NC(=O)/C(C)=C\C=C[C@H](C)[C@H](O)C(C)[C@@H](O)C(C)[C@H](OC(C)=O)[C@@H]1C (stereo partly specified)	18.3 µM (inactive)
O=C1c2ccccc2C(=O)c2c(Nc3cc4c5c(ccc6c7ccc8c9c(cc(Nc%10cccc%11c%10C(=O)c%10ccccc%10C%11=O)c(c3c56)c97)-c3ccccc3C8=O)C(=O)c3ccccc3-4)cccc21	71 µM (inactive)
COc1cc(C2S/C(=C/c3ccccc3)C(=O)N2c2cccc([N+](=O)[O-])c2)cc(OC)c1OC (stereo unspecified)	38.5 µM (inactive)
Brc1ccc2c([C@H]3CN[C@@H](c4c[nH]c5cc(Br)ccc45)CN3)c[nH]c2c1	1.57 µM (inactive)
CN1CCC/C1=N\C#N	> 100 µM (inactive)
CCC1CN(C(=O)c2ccccc2)C(Cc2c[nH]c3ccccc23)C(=O)C1CC(=O)OC (stereo unspecified)	50.9 µM (inactive)
CN(CC(=O)O)S(=O)(=O)c1ccc(Cl)cc1	> 100 µM (inactive)
CCOC(=O)/N=C(\N)SCc1ccccc1	> 100 µM (inactive)
O=[N+]([O-])c1ccc(C2CC(c3ccc(NCc4nc5ccccc5[nH]4)cc3)=NO2)cc1 (stereo unspecified)	27.9 µM (inactive)
O=C(CCC(=O)Nc1cccc(Cl)c1)CC(=O)c1ccc(Cl)cc1	> 100 µM (inactive)
CN(CCCCCl)P(=O)(OCc1ccc([N+](=O)[O-])o1)OC[C@H]1O[C@@H](n2cc(F)c(=O)[nH]c2=O)C[C@@H]1O (stereo partly specified)	3.77 µM (inactive)
